Assay: gradient 5% acetonitrile 3 min, to 50% in 2 min, to 85% in 15 min, held 3 min, 100 µL/min
Conditions: column: Zorbax Extend-C18 2.1 x 50 mm; eluents: water / acetonitrile, 0.1% formic acid
Recorded RP-LC retention time, one value per entry.
Expressed in s, but write only the number.

1. Cc1ccc2c(c1)C(O)(CC(=O)c1cccc(Br)c1)C(=O)N2 (stereo unspecified) :: 789
2. Cc1cc(C2CCCN2C(=O)c2c(-c3ccccc3Cl)noc2C)on1 (stereo unspecified) :: 816
3. COCCOC(=O)C1=C(C)NC2=C(C(=O)CC(C)(C)C2)C1c1cccc(OC)c1OC (stereo unspecified) :: 787
4. CNC(=O)CN(C)C(=O)c1cc2c(s1)N(CC1CC1)CCCC2 :: 818
5. CCOC(=O)c1[nH]c(C)c(CCC(=O)N2CCC(C(=O)NCCC(C)C)CC2)c1C :: 798

Then this compound:
Data request: Report RP-LC retention time for Cc1nc(C)c(C(=O)Nc2ccc(F)c(C)c2)s1 please.
Data returned: 810
